Just for reference, patent US20200339544A1 is where these values come from.

# testedTarget: DM EGFR (DoubleMutantEGFR, L828R/T790M) (Homo sapiens, UniProt P00533, L858R/T790M)
# assayProcedure: Inhibition of DM EGFR kinase activity (ADP-Glo)
# conditionDetails: inhibition of kinase activity, EGFR DM (L828R/T790M)
Kindly apply the following: True if IC50 is less than 7 nM, False in every other case.

Worked set:
C=CC(=O)Nc1cc(Nc2nccc(C(=O)c3ccc(F)cc3)n2)c(OC)cc1N(C)CCN(C)C [EGFR_3365_10]
False
C=CC(=O)Nc1cc(Nc2nccc(C(=O)c3ccc(Oc4ccccc4)cc3)n2)c(OC)cc1N(C)CCN(C)C [EGFR_3365_17]
False
C=CC(=O)Nc1cc(Nc2nccc(C(=O)c3ccc(N4CCC(OC)CC4)cc3)n2)c(OC)cc1N(C)CCN(C)C [EGFR_3365_98]
True
C=CC(=O)Nc1cc(Nc2nccc(C(=O)c3ccccc3C(F)(F)F)n2)c(OC)cc1N(C)CCN(C)C [EGFR_3365]
False
C=CC(=O)Nc1cc(Nc2nccc(C(=O)c3ccc(OCC)cc3)n2)c(OC)cc1N(C)CCN(C)C [EGFR_3365_29]
False

Continue with the compound presented below.
Q. Please state whether IC50 is below 7 nM for C=CC(=O)Nc1cc(Nc2nccc(C(=O)c3ccc(OC)cc3OC(C)C)n2)c(OC)cc1N(C)CCN(C)C [EGFR_3365_104]
A. True

====

Quick reference for IC50 among some compounds
# testedTarget: DM EGFR (DoubleMutantEGFR, L828R/T790M) (Homo sapiens, UniProt P00533, L858R/T790M)
# Construct: purchased SignalChem
# assayProcedure: Inhibition of DM EGFR kinase activity (ADP-Glo)
# Format: biochemical
# conditionDetails: inhibition of kinase activity, EGFR DM (L828R/T790M)
The answer is to be given in nM; state only the numeric part.

Q. For the compound C=CC(=O)Nc1cc(Nc2nccc(C(=O)c3ccc(N4CCCCC4)cc3OC)n2)c(OC)cc1N(C)CCN(C)C , what IC50 is on record?
A. 2.67

====

# testedTarget: DM EGFR (DoubleMutantEGFR, L828R/T790M) (Homo sapiens, UniProt P00533, L858R/T790M)
# Construct: purchased SignalChem
# assayProcedure: Inhibition of DM EGFR kinase activity (ADP-Glo)
# Format: biochemical
# conditionDetails: selectivity index, kinase EGFR WT vs EGFR DM
Quick reference for SI, IC50(WT)/IC50(DM) among some molecules

Some molecules with recorded SI, IC50(WT)/IC50(DM):
C=CC(=O)Nc1cc(Nc2nccc(C(=O)c3ccc(OCC)cc3)n2)c(OC)cc1N(C)CCN(C)C
18.79
C=CC(=O)Nc1cc(Nc2nccc(C(=O)c3ccccc3C(F)(F)F)n2)c(OC)cc1N(C)CCN(C)C
26.69

Q. For the molecule C=CC(=O)Nc1cc(Nc2cc(C(=O)c3ccc(-c4cnn(C)c4)cc3)ccn2)c(OC)cc1N(C)CCN(C)C , what SI, IC50(WT)/IC50(DM) is on record?
A. 7.17

Q. For the molecule C=CC(=O)Nc1cc(Nc2nccc(C(=O)c3ccc(OCCC)cc3OCCC)n2)c(OC)cc1N(C)CCN(C)C , what SI, IC50(WT)/IC50(DM) is on record?
A. 16.96

====

# System: HepG2 cells
# assayProcedure: General cytotoxicity on HepG2 cells
# Assay type: cell-based
# conditionDetails: therapeutic index, CC50 HepG2 / IC50 H1975
assayReadout: TI, CC50/IC50
# answer = number (no unit)

C=CC(=O)Nc1cc(Nc2nccc(C(=O)c3ccccc3C(F)(F)F)n2)c(OC)cc1N(C)CCN(C)C
423
C=CC(=O)Nc1cc(Nc2nccc(C(=O)c3ccc(N4CCC(OC)CC4)cc3)n2)c(OC)cc1N(C)CCN(C)C
1770
C=CC(=O)Nc1cc(Nc2cc(C(=O)c3ccc(OCC)cc3)ccn2)c(OC)cc1N(C)CCN(C)C
237

Read the next record carefully.
Q. For the compound C=CC(=O)Nc1cc(Nc2nccc(C(=O)c3ccc(N4CCC[C@@H](OC)C4)cc3)n2)c(OC)cc1N(C)CCN(C)C , what TI, CC50/IC50 is on record?
A. 742

====

# assayProcedure: General cytotoxicity on HepG2 cells
# Assay type: cell-based
# conditionDetails: human; general cytotoxicity, HepG2 cells, 72 hours, average of several tests
Quick reference for CC50 at 72 h among some compounds
The answer is to be given in µM; state only the numeric part.

Q. For the compound C=CC(=O)Nc1cc(Nc2nccc(C(=O)c3ccc(N4CCC[C@@H](O)C4)cc3)n2)c(OC)cc1N(C)CCN(C)C , what CC50 at 72 h is on record?
A. 45.4

Q. For the compound C=CC(=O)Nc1cc(Nc2nccc(C(=O)c3ccc(N4CCCCC4)cc3)n2)c(OC)cc1N(C)CCN(C)C , what CC50 at 72 h is on record?
A. 12.8

Q. For the compound C=CC(=O)Nc1cc(Nc2cc(C(=O)c3ccc(N4CCCC4)cc3)ccn2)c(OC)cc1N(C)CCN(C)C , what CC50 at 72 h is on record?
A. 9.51

Q. For the compound C=CC(=O)Nc1cc(Nc2cc(C(=O)c3ccc(OCC)cc3)ccn2)c(OC)cc1N(C)CCN(C)C , what CC50 at 72 h is on record?
A. 15.6

====

# Test system: HepG2 cells
# assayProcedure: General cytotoxicity on HepG2 cells
# Format: cell-based
# conditionDetails: therapeutic index, CC50 HepG2 / IC50 H1975
Structures can show the parent of a compound that is named as a salt.
Kindly apply the following: YES if TI, CC50/IC50 is less than 1000, NO in every other case.

Worked set:
C=CC(=O)Nc1cc(Nc2cc(C(=O)c3ccc(N4CCN(C)CC4)cc3)ccn2)c(OC)cc1N(C)CCN(C)C [EGFR_3365_55]
YES
C=CC(=O)Nc1cc(Nc2nccc(C(=O)c3ccc(N4CC[C@@H](OC)C4)cc3)n2)c(OC)cc1N(C)CCN(C)C [EGFR_3365_115]
NO
C=CC(=O)Nc1cc(Nc2nccc(C(=O)c3ccc(N4CCC[C@H](OC)C4)cc3)n2)c(OC)cc1N(C)CCN(C)C [EGFR_3365_110]
YES
C=CC(=O)Nc1cc(Nc2nccc(C(=O)c3ccc(Br)cc3)n2)c(OC)cc1N(C)CCN(C)C [EGFR_3365_13]
YES
C=CC(=O)Nc1cc(Nc2nccc(C(=O)c3ccc(N4CCN(C)CC4)cc3)n2)c(OC)cc1N(C)CCN(C)C [EGFR_3365_62, formate]
YES
C=CC(=O)Nc1cc(Nc2nccc(C(=O)c3ccc(N4CCCCC4)cc3)n2)c(OC)cc1N(C)CCN(C)C [EGFR_3365_90]
NO
C=CC(=O)Nc1cc(Nc2cc(C(=O)c3ccc(C)cc3)ccn2)c(OC)cc1N(C)CCN(C)C [EGFR_3365_57]
YES
C=CC(=O)Nc1cc(Nc2cc(C(=O)c3ccc(N4CCCC4)cc3)ccn2)c(OC)cc1N(C)CCN(C)C [EGFR_3365_56]
YES

Q. Please state whether TI, CC50/IC50 is below 1000 for C=CC(=O)Nc1cc(Nc2nccc(C(=O)c3ccc(OC4CCCCC4)cc3)n2)c(OC)cc1N(C)CCN(C)C [EGFR_3365_67]
A. YES

Q. Please state whether TI, CC50/IC50 is below 1000 for C=CC(=O)Nc1cc(Nc2nccc(C(=O)c3ccc(N4CCC[C@@H](O)C4)cc3)n2)c(OC)cc1N(C)CCN(C)C [EGFR_3365_109]
A. NO

Q. Please state whether TI, CC50/IC50 is below 1000 for C=CC(=O)Nc1cc(Nc2nccc(C(=O)c3ccc(N4CC(OC)C4)cc3)n2)c(OC)cc1N(C)CCN(C)C [EGFR_3365_61]
A. NO

====

Quick reference for Intrinsic clearance in human liver S9 fractions at 10 µM among some compounds
# assayProcedure: Enzyme stability in human liver S9 fractions
# Type: in vitro ADME
# conditionDetails: 0.5 mg/mL pooled human liver S9 fractions; 10 μM compound; 37° C.; pH 7.4; read-out: Stability in liver S9 fractions, Clint
The answer is to be given in µL/min/mg; state only the numeric part.

Q. For the compound C=CC(=O)Nc1cc(Nc2nccc(C(=O)c3ccc(N4CC[C@H](OC)C4)cc3)n2)c(OC)cc1N(C)CCN(C)C , what Intrinsic clearance in human liver S9 fractions at 10 µM is on record?
A. 16

Q. For the compound C=CC(=O)Nc1cc(Nc2nccc(C(=O)c3ccc(N4CCCC4)cc3OC)n2)c(OC)cc1N(C)CCN(C)C , what Intrinsic clearance in human liver S9 fractions at 10 µM is on record?
A. 9.2

Q. For the compound C=CC(=O)Nc1cc(Nc2nccc(C(=O)c3ccc(OCC)cc3OCC)n2)c(OC)cc1N(C)CCN(C)C , what Intrinsic clearance in human liver S9 fractions at 10 µM is on record?
A. 14.5

Q. For the compound C=CC(=O)Nc1cc(Nc2nccc(C(=O)c3ccc(Oc4ccccc4)cc3)n2)c(OC)cc1N(C)CCN(C)C , what Intrinsic clearance in human liver S9 fractions at 10 µM is on record?
A. 10.9
